# TEST TARGET: Human liver cathepsin B (Homo sapiens, UniProt P07858)
# Construct: Human liver cathepsin B (Calbiochem 219362, 65 ng/mL); purchased Calbiochem 219362; host or cells: human liver
# TEST DETAILS: Cathepsin B assay, IC50 determination
# Format: biochemical
# MEASUREMENT CONDITIONS: Table 18; Cathepsin B, human liver; no preincubation; read-out: IC50
READOUT: pIC50
One number for each entry, as −log10 of the molar value.

For the molecule CC(C)(C)OC(=O)N[C@@H](Cc1c[nH]c2ccccc12)C(=O)NNC(=O)OCC(=O)N1CCCc2ccccc21 [Compound No. 96] , the measured pIC50 on Human liver cathepsin B (Homo sapiens, UniProt P07858) was 5.29
